Answer each item with its documented In vitro stability in mouse (% remaining at 60 min) Intestinal homogenate.
Assay: In vitro stability in mouse jejunum (intestinal) homogenate
Format: in vitro ADME
Details: 10 μM, 60 min
// note: answer is a bare numeric in %

Problem: Please report the recorded In vitro stability in mouse (% remaining at 60 min) Intestinal homogenate for COC(=O)Nc1nc2cc(C(=O)c3ccccc3)ccc2n1C(OC(=O)C(C)(C)C)C(C)C (stereo not drawn) .
Result: 100

Problem: Form field: reported In vitro stability in mouse (% remaining at 60 min) Intestinal homogenate of COC(=O)Nc1nc2cc(C(=O)c3ccccc3)ccc2n1COP(=O)(O)O
Result: 35

Problem: Bench note: what In vitro stability in mouse (% remaining at 60 min) Intestinal homogenate did COC(=O)Nc1nc2cc(C(=O)c3ccccc3)ccc2n1COP(=O)([O-])OCOC(=O)OC(C)C.[Na+] show?
Result: 1

Problem: Form field: reported In vitro stability in mouse (% remaining at 60 min) Intestinal homogenate of COC(=O)Nc1nc2cc(C(=O)c3ccccc3)ccc2n1COC(=O)CCC(=O)O
Result: 30

Problem: # In vitro stability in mouse (% remaining at 60 min) Intestinal homogenate lookup, item COC(=O)Nc1nc2cc(C(=O)c3ccccc3)ccc2n1COC(=O)CNC(=O)[C@H](CC(C)C)NC(C)=O
Result: 18

Problem: Given the entry COC(=O)Nc1nc2cc(C(=O)c3ccccc3)ccc2n1COP(=O)([O-])OC(C)OC(=O)OC(C)C.[Na+] (stereo not drawn) , report its measured In vitro stability in mouse (% remaining at 60 min) Intestinal homogenate.
Result: 46

Problem: Need In vitro stability in mouse (% remaining at 60 min) Intestinal homogenate, item COC(=O)Nc1nc2cc(C(=O)c3ccccc3)ccc2n1C(C)OC(=O)C(C)(C)C (stereo not drawn)
Result: 60

Problem: State the recorded In vitro stability in mouse (% remaining at 60 min) Intestinal homogenate for this entry: COC(=O)Nc1nc2cc(C(=O)c3ccccc3)ccc2n1COC(=O)C(C)(C)C
Result: 37

Problem: Fill in: In vitro stability in mouse (% remaining at 60 min) Intestinal homogenate of COC(=O)Nc1nc2cc(C(=O)c3ccccc3)ccc2n1COC(=O)OC[C@H]1OC(O)[C@H](O)[C@@H](O)[C@@H]1O (stereo partly drawn) is ___
Result: 4

* * *

Assay: In vitro stability in mouse plasma
Type: in vitro ADME
Conditions: 10 μM, 37° C., 60 min
Hi there, I'd appreciate the recorded In vitro stability in mouse (% remaining at 60 min) Plasma for every entry that follows.
Numbers only here, please. The scale is %.

Problem: Could you tell me which In vitro stability in mouse (% remaining at 60 min) Plasma is on file for COC(=O)Nc1nc2cc(C(=O)c3ccccc3)ccc2n1COP(=O)([O-])OCOC(=O)OC(C)C.[Na+] ?
Result: 73

Problem: Which In vitro stability in mouse (% remaining at 60 min) Plasma is listed for COC(=O)Nc1nc2cc(C(=O)c3ccccc3)ccc2n1C(C)OC(=O)C(C)(C)C (centres unmarked) ?
Result: 85

Problem: Name the recorded In vitro stability in mouse (% remaining at 60 min) Plasma for COC(=O)Nc1nc2cc(C(=O)c3ccccc3)ccc2n1COC(=O)CCC(=O)O .
Result: 78

Problem: I would be grateful if you could share the reported In vitro stability in mouse (% remaining at 60 min) Plasma for COC(=O)Nc1nc2cc(C(=O)c3ccccc3)ccc2n1COP(=O)([O-])OC(C)OC(=O)OC(C)C.[Na+] (centres unmarked) .
Result: 89

Problem: Which In vitro stability in mouse (% remaining at 60 min) Plasma is listed for COC(=O)Nc1nc2cc(C(=O)c3ccccc3)ccc2n1COP(=O)(O)O ?
Result: 62

Problem: Returns the measured In vitro stability in mouse (% remaining at 60 min) Plasma for the input compound. Input: COC(=O)Nc1nc2cc(C(=O)c3ccccc3)ccc2n1COC(=O)CNC(=O)[C@H](CC(C)C)NC(C)=O
Result: 0

Problem: # input compound: COC(=O)Nc1nc2cc(C(=O)c3ccccc3)ccc2n1COC(=O)OC[C@H]1OC(O)[C@H](O)[C@@H](O)[C@@H]1O (some centres unmarked) ; wanted: its In vitro stability in mouse (% remaining at 60 min) Plasma
Result: 18

Problem: Return reported In vitro stability in mouse (% remaining at 60 min) Plasma; argument: COC(=O)Nc1nc2cc(C(=O)c3ccccc3)ccc2n1COC(=O)C(C)(C)C
Result: 4

* * *

Assay: physchem
Details: 37 °C, pH 7.4, water, thermodynamic from solid
Protocol: The aqueous solubility was determined as previously reported using the shake-flask procedure published by Zhou, et al., 2007. The compound was added to PBS buffer (0.01 M) and shaken for 24 h at 37° C. to ensure saturation. After 24 h, the solution was centrifuged (10,000 rpm, 2 min, RT) filtered (0.45 μm PTFE) and the filtrate was diluted appropriately (i.e. neat, 1/10, 1/100, 1/1000) and the concentration of compound was determined using LC/MS.
Endpoint: solubility at 24 h
Reply with a number, then the unit it belongs to.

Problem: Need solubility at 24 h of COC(=O)Nc1nc2cc(C(=O)c3ccccc3)ccc2n1COC(=O)CC[C@H](N)C(=O)O , thanks.
Result: 451 µg/mL

* * *

Exercise: state measured In vitro stability in mouse (% remaining at 60 min) Liver microsomes for each of the molecules provided.
Experiment: In vitro stability in mouse liver microsomes
Type: in vitro ADME
Conditions: 10 μM, 0.5 mg/mL microsomes, 60 min

Problem: Recorded In vitro stability in mouse (% remaining at 60 min) Liver microsomes of COC(=O)Nc1nc2cc(C(=O)c3ccccc3)ccc2n1COC(=O)OC[C@H]1OC(O)[C@H](O)[C@@H](O)[C@@H]1O (stereo partly drawn) [Compound 9] , please.
Result: 27 ± 0%

Problem: What value of In vitro stability in mouse (% remaining at 60 min) Liver microsomes has been recorded for this entry: COC(=O)Nc1nc2cc(C(=O)c3ccccc3)ccc2n1COC(=O)CCC(=O)O [Compound 8]
Result: 24 ± 0%

Problem: In vitro stability in mouse (% remaining at 60 min) Liver microsomes lookup needed for COC(=O)Nc1nc2cc(C(=O)c3ccccc3)ccc2n1COP(=O)([O-])OCOC(=O)OC(C)C.[Na+] [Compound 12] , thanks.
Result: 14 ± 0%

Problem: Need In vitro stability in mouse (% remaining at 60 min) Liver microsomes, item COC(=O)Nc1nc2cc(C(=O)c3ccccc3)ccc2n1COC(=O)CNC(=O)[C@H](CC(C)C)NC(C)=O [Compound 7]
Result: 29 ± 1%

Problem: State the recorded In vitro stability in mouse (% remaining at 60 min) Liver microsomes for this entry: COC(=O)Nc1nc2cc(C(=O)c3ccccc3)ccc2n1COP(=O)([O-])OC(C)OC(=O)OC(C)C.[Na+] (stereo not drawn) [Compound 17]
Result: 82%

Problem: Given the molecule COC(=O)Nc1nc2cc(C(=O)c3ccccc3)ccc2n1COP(=O)(O)O [Compound 11] , what is its reported In vitro stability in mouse (% remaining at 60 min) Liver microsomes?
Result: 100 ± 2%

* * *

Assay: physchem
Settings: 24 h, pH 7.4
Endpoint: fold improvement in solubility over MBZ-C

INSERT INTO assay_data (molecule, result) VALUES
  ('COC(=O)Nc1nc2cc(C(=O)c3ccccc3)ccc2n1COP(=O)([O-])OCOC(=O)OC(C)C.[Na+]', '> 10,000 fold'),
  ('COC(=O)Nc1nc2cc(C(=O)c3ccccc3)ccc2n1COC(=O)CNC(=O)[C@H](CC(C)C)NC(C)=O', 'greater than 200 fold'),
  ('COC(=O)Nc1nc2cc(C(=O)c3ccccc3)ccc2n1COC(=O)CCC(=O)O', 'greater than 200 fold'),
  ('COC(=O)Nc1nc2cc(C(=O)c3ccccc3)ccc2n1COC(=O)OC[C@H]1OC(O)[C@H](O)[C@@H](O)[C@@H]1O (stereo partly shown)', 'greater than 200 fold');
